Reference for the values: patent US5206148A

Tested on: ω-carboxyalcohol oxidase
Assay: Substrate specificity of ω-carboxyalcohol oxidase (peroxidase/4-aminoantipyrine H2O2 assay)
Format: biochemical, Streptomyces sp. AC 8205
Set-up: concentration or dose not given beside the values
Settings: substrate in place of 12-hydroxydodecanoic acid; activity on 12-hydroxydodecanoic acid defined as 100; pH 7.5, 37° C., 10 mins.
Protocol: An enzyme solution (25 μl) was added to the above mixture (0.5 ml), followed by incubation at 37° C. for exactly 10 mins., whereupon sodium dodecyl sulfate (SDS) (0.5 ml) was added thereto, then absorbance at 545 nm was measured. One unit of enzyme is defined by the activity which generates 1 μmole of hydrogen peroxide per minute. […]
measured_parameter: Relative Activity (%)
The response must be a number in % with no trailing unit.

molecule | value_unit | Relative Activity (%)
OCC(O)CO | % | 0

Can you look up the measured Relative Activity (%) of CCCCCCCCC=CCCCCCCCCO for me?
59.1

Then this molecule: CCCCCCCCCCCCO
86.1

Then this molecule: CCCO
6.6

Then this molecule: CCCCCCCCCCO
87.6

Then this molecule: CCCCCCCCCCCCCCCCO
60.2
